All values here come from ChEMBL document CHEMBL1201862.

Tested on: NCI-H460
assay-remarks: NCI tumour cell line growth inhibition, 48 h
Activity calls are given as the source filed them. Cut-off read from the data, not from the text of the source: active = GI50 up to about 1.1 µM and inactive = higher.
I'd appreciate it if you could supply GI50 values for the items below.

Here's what some known entries look like.
{"columns": ["substance-smiles", "GI50"],
 "data": [
  ["CCOP(=O)(/C=C\\n1ccc(N)nc1=O)OCC", "> 100 µM (inactive)"],
  ["O=[N+]([O-])c1cc(/C=N/NS(=O)(=O)c2ccc(F)cc2)c(O)c([N+](=O)[O-])c1", "28.8 µM (inactive)"],
  ["N#CCCN(CCC#N)c1ccc(C(/N=N/c2ccccc2)=N\\c2ccccc2)cc1", "> 100 µM (inactive)"],
  ["CCc1oc2ccccc2c1C(=O)c1cc(Br)c(O)c(Br)c1", "18.4 µM (inactive)"],
  ["C[N+]1(C)CC[N+](C)(C)[BH-]1C(O)O", "> 100 µM (inactive)"],
  ["CCN(CCCl)c1ccc(NC(=O)c2cc(C(=O)NCCN(C)C)cc(C(=O)Nc3ccc(N(CC)CCCl)cc3)c2)cc1", "0.713 µM (active)"],
  ["CCC/C(Cl)=N\\OC(=O)Nc1ccc(F)c([N+](=O)[O-])c1", "12.5 µM (inactive)"],
  ["Cn1c(N/N=C/c2ccccc2)nc(-c2ccc3c(c2)OCO3)c(C#N)c1=O", "87.7 µM (inactive)"]
]}

// batch mode: one GI50 value per listed entry
1. CCC(C)(C)n1c(C)nc2c1C(=O)c1ccccc1C2=O
2. COC(=O)c1sc(=S)sc1SCc1ccc(CSc2sc(=S)sc2C(=O)OC)cc1

["12.2 µM (inactive)", "> 100 µM (inactive)"]

###

Test system: 786-0
assay-remarks: NCI tumour cell line growth inhibition, 48 h
Activity calls are given as the source filed them. No stated cut-off is given here; in the data, active = GI50 up to about 1.1 µM and inactive = higher.
Please respond with reported GI50 for every item in the list.

These solved cases illustrate the format of a correct answer.
{"columns": ["molecule", "reported-measurement"],
 "data": [
  ["Cc1nc2ccc(C(F)(F)F)cc2nc1NCc1ccc(Cl)c(Cl)c1", "16.6 µM (inactive)"],
  ["CC(C)c1cc(C(C)C)c(S(=O)(=O)NN)c(C(C)C)c1", "> 100 µM (inactive)"],
  ["O=C1NC(=O)C(C(=O)C(=O)Nc2cccc(C(F)(F)F)c2)C(=O)N1", "> 100 µM (inactive)"],
  ["Cc1c2cc(Cl)ccc2n2c(=O)c3ccccc3[nH]c(=O)c12", "41.5 µM (inactive)"],
  ["CC1CNC(c2ccc(CN3CCC(CCCC4CCN(Cc5ccc(C6=NC(C)CN6)cc5)CC4)CC3)cc2)=N1 (configuration not stated)", "> 100 µM (inactive)"]
]}

Quick batch: GI50 for everything below.
1. CC1=CC(=O)c2ccc3c4ccccc4n(C)c3c2C1=O
2. CCCNC(=O)C(C)(Cl)C(=O)c1ccccc1O (configuration not stated)
3. N#Cc1ccccc1NC(=O)c1ccccc1
4. CCCC/N=C(/c1ccccc1)N1CCOCC1
5. COC(=O)C1CC(=O)CCC1c1ccccc1 (configuration not stated)
6. CCCCCCCCCCCCCC(=O)CBr
7. COc1cc2cc(C(=O)N3CC(CCl)c4ccc(N(C)C)cc43)[nH]c2c(OC)c1OC (configuration not stated)

1: 56 µM (inactive); 2: > 100 µM (inactive); 3: > 100 µM (inactive); 4: > 100 µM (inactive); 5: > 100 µM (inactive); 6: 5.13 µM (inactive); 7: 0.0361 µM (active)

###

Test system: HOP-62
assay-remarks: NCI tumour cell line growth inhibition, 48 h
Activity calls are given as the source filed them. No stated cut-off is given here; in the data, active = GI50 up to about 1.1 µM and inactive = higher.
measurement-type: GI50

Example entries begin here.
{"columns": ["compound", "GI50"],
 "data": [
  ["COc1ccc2c(Cl)cc(NC(=S)Nc3ccccc3)nc2c1", "35.5 µM (inactive)"],
  ["C/C(CN1C(=O)c2ccccc2C1=O)=N\\NS(=O)(=O)c1cccc(C(=O)O)c1", "> 100 µM (inactive)"],
  ["Cc1c2ncccc2c(C)c2c1[nH]c1ccc(O)cc12", "1.86 µM (inactive)"],
  ["N#Cc1c(C#N)c(-c2ccco2)n(-c2ccccc2)c1N", "> 100 µM (inactive)"],
  ["CC(=O)NNc1nc(C)c(C(=O)NNC(=O)C(=O)Nc2c(Cl)cc([N+](=O)[O-])cc2Cl)s1", "56.6 µM (inactive)"]
]}

Which measured GI50 belongs to COC12C(COC(=O)NCCO)C3=C(C(=O)C(C)=C(N)C3=O)N1CC1NC12 (stereo unspecified) , tested on HOP-62?
6.47 µM (inactive)

###

Field: GI50. Provide a value for each of the molecules that follow.
System: SF-268
assay-remarks: NCI tumour cell line growth inhibition, 48 h
The source made the active and inactive calls. No stated cut-off is given here; in the data, active = GI50 up to about 1.1 µM and inactive = higher.

// worked examples, GI50 included
{"columns": ["molecule", "measurement-type", "reported-measurement"],
 "data": [
  ["COC(=O)c1sc(=S)sc1SCc1ccc(CSc2sc(=S)sc2C(=O)OC)cc1", "GI50", "> 100 µM (inactive)"],
  ["C[N+](C)(C)C1CC([N+](C)(C)C)C2c3ccccc3C21 (stereo not drawn)", "GI50", "> 100 µM (inactive)"],
  ["O=C(CC(C(=O)c1cccs1)c1cccs1)c1ccccc1Cl (stereo not drawn)", "GI50", "> 100 µM (inactive)"]
]}

Each molecule below has a recorded value; state its GI50.
1. COc1cccc2nc3c(C(=O)NCCN(C)C)cccc3cc12
2. O=C(CCc1ccc(O)cc1)c1c(O)cc(O)cc1OC1OC(CO)C(O)C(O)C1O (stereo not drawn)
3. C/C(=N\NS(=O)(=O)c1ccccc1)c1ccc[n+]([O-])n1
4. O=C1/C(=N/O)Cc2c(Br)ccc(Br)c21
5. Nc1nc(=O)c(/N=N/c2ccccc2)c(C(=O)O)[nH]1
6. Cc1c2ncccc2c(C)c2c1[nH]c1ccc(O)cc12
7. O=c1c2ccccc2nc(-c2ccccc2Cl)n1NC1OC(CO)C(O)C(O)C1O (stereo not drawn)

["3.24 µM (inactive)", "> 100 µM (inactive)", "> 100 µM (inactive)", "35.2 µM (inactive)", "72.3 µM (inactive)", "4.94 µM (inactive)", "> 100 µM (inactive)"]

For every item in the list below, what is its measured GI50?
1. C=C(Cl)/C(=C\Cl)CCC(Cl)C(C)C (stereo not drawn)
2. O=C(O)CCC(/N=C(\C(=N\C(CCC(=O)O)C(=O)O)c1ccccc1)c1ccccc1)C(=O)O (stereo not drawn)

> 100 µM (inactive)
> 100 µM (inactive)

I need GI50 for every entry listed below, if you could help.
1. CCOC(=O)CN1C(=O)NC(C)(c2ccccc2)C1=O (stereo not drawn)
2. COc1ccc(NC(=O)CC/C(CC(=O)c2ccccc2Cl)=N\Nc2nnc(C)n2N)cc1
3. C/C(CN1C(=O)c2ccccc2C1=O)=N\NS(=O)(=O)c1cccc(C(=O)O)c1

> 100 µM (inactive)
> 100 µM (inactive)
> 100 µM (inactive)

Batch request: GI50 per item, same order as input.
1. COc1ccc(CCCC(=O)O)c(C)c1
2. C=C(CN1CC2C[C@](C(=O)OC)(c3cc4ccccc4[nH]3)C1C(OC)C2OC)S(=O)(=O)c1ccccc1 (stereo partly drawn)
3. CC1(C)CCCCCC(C)(CCCCCCCCCCCO)C1=O (stereo not drawn)
4. N#Cc1nc(Nc2ccc(Cl)cc2)sc1N

27.4 µM (inactive)
4.43 µM (inactive)
16.1 µM (inactive)
5.47 µM (inactive)

###

Test system: DU-145
assay-remarks: NCI tumour cell line growth inhibition, 48 h
Activity calls are given as the source filed them. Rule as the data show it: active = GI50 up to about 1.1 µM and inactive = higher.
Tick one outcome: active, inactive

{"columns": ["molecule", "target-under-test", "label-value"],
 "data": [
  ["CCn1c(-c2ccc(OC)cc2)nc2c1C(=O)c1ccccc1C2=O", "DU-145", "inactive"],
  ["C=C(CN1CC2C[C@](C(=O)OC)(c3cc4ccccc4[nH]3)C1C(OC)C2OC)S(=O)(=O)c1ccccc1 (some centres undefined)", "DU-145", "inactive"],
  ["C[C@]12CCC(=O)C=C1CC[C@@H]1[C@@H]2CC[C@]2(C)C(=O)/C(=C/c3ccc([N+](=O)[O-])cc3)C[C@@H]12", "DU-145", "active"],
  ["COc1cc(NCc2ccc3n2-c2ccccc2OC3)cc(OC)c1OC", "DU-145", "inactive"]
]}

Fill in: this test's call for "COc1cccc2nc3c(C(=O)NCCN(C)C)cccc3cc12" is ___
inactive

For this molecule, state the assay outcome: "C=CCc1cc(-c2cc(CC=C)c(O)c(CN(CCCl)CCCl)c2)cc(CN(CCCl)CCCl)c1O"
inactive

###

I'd be grateful if you could share measured GI50 for these entries.
System: TK-10
assay-remarks: NCI tumour cell line growth inhibition, 48 h
The source made the active and inactive calls. Rule as the data show it: active = GI50 up to about 1.1 µM and inactive = higher.

Go through the items and report each one's GI50.
1. COC(=O)Cn1cnc2c(Cl)nc(Nc3ccccc3)nc21
2. COc1ccc(CCCC(=O)O)c(C)c1
3. CCCC/N=C(/c1ccccc1)N1CCOCC1
4. O=CC(O)C(O)C(O)C1CNC(=S)O1 (stereo unspecified)
5. COc1cccc2nc3c(C(=O)NCCN(C)C)cccc3cc12
6. C/C(CN1C(=O)c2ccccc2C1=O)=N\NS(=O)(=O)c1cccc(C(=O)O)c1
7. CCOC(=O)c1s/c(=N\Nc2nc3ccccc3cc2C2OCCO2)n(Cc2ccccc2)c1C
8. NC(=O)c1nc(-c2ccc(Cl)c(Cl)c2)nc2ccccc12

1. > 100 µM (inactive)
2. 81.8 µM (inactive)
3. > 100 µM (inactive)
4. > 100 µM (inactive)
5. 2.57 µM (inactive)
6. > 100 µM (inactive)
7. > 100 µM (inactive)
8. 22.6 µM (inactive)

Each of the following entries comes with a recorded value; kindly state GI50 for each.
1. CCCCOC(=O)NC(Nc1ccc(S(=O)(=O)Nc2ncccn2)cc1)(C(F)(F)F)C(F)(F)F
2. N#Cc1c(C#N)c(-c2ccco2)n(-c2ccccc2)c1N
3. CN(CCN(C)C(=O)CCn1cc(F)c(=O)[nH]c1=O)C(=O)CCn1cc(F)c(=O)[nH]c1=O

1: > 100 µM (inactive); 2: > 100 µM (inactive); 3: > 100 µM (inactive)
